The reported numbers originate from the supplement of paper PMC10724198.

# protein stability index per entry
# Tested on: Saccharomyces cerevisiae
# Experiment Summary: protein stability index of tFT-peptide fusion (C-terminal peptide) (PSI (0-1 scale)); higher = more stable (slower turnover);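 note: PSI is a weighted mean of sequencing reads over stability bins, variants kept only with over 10 reads, mCherry proximal and sfGFP distal, peptide attached via GGGS linker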
# Settings: genetic background: wild type; temperature: 30 C
No unit in the answer, please; the number alone is enough.

Use these answered entries as a reference point.
VVFSLLLWLFIS	0.216
DRFPGLILVSFP	0.73
PCSVLVWGVLLP	0.622

Output measured protein stability index for this item: "APPALPPLSPFP"
0.705

----------
# Test system: Saccharomyces cerevisiae
# Experiment Summary: protein stability index of tFT-peptide fusion (C-terminal peptide) (PSI (0-1 scale)); higher = more stable (slower turnover)
# Settings: genetic background: wild type; temperature: 37 C
Label scheme for protein stability index: lower than 0.4 is Not satisfied, 0.4 and above is Satisfied.

// below: answered sequences
FFFFPVYFIFVV	Not satisfied
SCLSYRTRLLAF	Satisfied
RYTWHGICIVTR	Satisfied

Has "LLLVPLLAFSAS" a recorded protein stability index greater than or equal to 0.4?
Satisfied
